These data points were gathered from patent US4692443A.

System: Klebsiella KAE
Assay Summary: standard in vitro agar dilution assay (MIC)
Assay type: cell-based
Recorded Conditions: Klebsiella strain KAE; read-out: Agar Dilution MIC
Test Readout: MIC (µg/mL)
Give the quantity in µg/mL, number only.

The examples below pair each entry with its known result.
molecule="CO/N=C(\\C(=O)NC1C(=O)N2C(C(=O)[O-])=C(C[n+]3ccc4sc(C)nc4c3)CSC12)c1csc(N)n1 (stereo not shown) [Example 13]" reported_result=2
molecule="CO/N=C(\\C(=O)NC1C(=O)N2C(C(=O)[O-])=C(C[n+]3ccc4ncn(C)c4c3)CSC12)c1csc(N)n1 (stereo not shown) [Example 3]" reported_result=4

Incoming: Any idea what MIC came out for CO/N=C(\C(=O)NC1C(=O)N2C(C(=O)[O-])=C(C[n+]3ccc4[nH]c(-c5cccs5)nc4c3)CSC12)c1csc(N)n1 (stereo not shown) [Example 8] on Klebsiella KAE?
Outgoing: 4

Incoming: Any idea what MIC came out for CO/N=C(\C(=O)NC1C(=O)N2C(C(=O)[O-])=C(C[n+]3ccc4[nH]c(C)nc4c3)CSC12)c1csc(N)n1 (stereo not shown) [Example 5] on Klebsiella KAE?
Outgoing: 2
